For each record, write down the corresponding PBM binding z-score.
# Test system: LXRb:RXRa (NR concentration 270 nM, RXRa partner concentration 90 nM)
# PROCEDURE DETAILS: PBM binding z-score (relative to random genomic background probes); higher = stronger binding; sequences stand for … in GC…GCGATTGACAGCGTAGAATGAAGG
Note: the reply should be a number with no unit written.

IN: Look up PBM binding z-score: CCTGCTAGGTCATGGTCAGCCAATCTACAGTATG
OUT: 1.68

IN: Would you mind doing ATATGTAGGTTAGCTGGGGTCATTAAGACTAGGC as well?
OUT: 4.58

IN: Would you mind doing TAGCCTAGGTCATGCGGGCCAGTGTAGTGTCGGC as well?
OUT: 1.38

IN: Would you mind doing ACTAGCAGGCCAGGGGTCACTCAAGATTAGTCCG as well?
OUT: 4.47

IN: Would you mind doing CGAACCAGGTCATTGACAGGACAGTGAATAGTAA as well?
OUT: 2.7

IN: Would you mind doing AGAACGAGGGCACGCTGAGTTGATAGCGGAGTAG as well?
OUT: 0.0446

IN: Would you mind doing CCTAGCAGGCCAGGGACACTCAAGCATTTCGCTT as well?
OUT: -0.68

IN: Would you mind doing ATCTATAGGTAACCAAGTTCAGTGAATGCCGAAC as well?
OUT: 0.556

IN: Would you mind doing TCTGCTAGGTCAACGATCGTCAGCTAATCTGCTA as well?
OUT: 1.24

IN: Would you mind doing TAGCCTAGGTCATTGGGCCAGTTTAGTACGCATC as well?
OUT: 2.35

IN: Would you mind doing ACTAGCAGGCCACGTTTGGGTCACTCAAACAAAG as well?
OUT: 0.601

IN: Would you mind doing GCATATAGGTAATACAAAGTGAAAGTCCGATTGT as well?
OUT: -0.304

IN: Would you mind doing GGAACGAGGGCAAGTTGATAACAGAGTTTGATGG as well?
OUT: 0.262

IN: Would you mind doing ATCTCTAGGTATGACTCAGTTCAGTGAAGAACGC as well?
OUT: 0.205

IN: Would you mind doing TCTCGGAGGACAAGAAGGTCAGAGCTTTCCAGAG as well?
OUT: 0.982

IN: Would you mind doing ATCGCTAGGTAAAGTTCAGTGAAAGATCGATAGA as well?
OUT: 0.692

IN: Would you mind doing GCATATAGGTAATACAAGGTGGAAGTCCGATTGT as well?
OUT: -0.272

IN: Would you mind doing CCTTACGGGTGACGAGGTTATAGCACGACGAGCG as well?
OUT: 0.572

IN: Would you mind doing ATATGTAGGTTAAGGGTCATTCGGGTTGGTTCGC as well?
OUT: 4.62

IN: Would you mind doing CCGAGTAGGTTATGGGCCATTCAGGCAACGGTGA as well?
OUT: -0.0151

IN: Would you mind doing ATCTCTAGCTAAAGATAGTTCAGTGAATGCAAAT as well?
OUT: 0.199

IN: Would you mind doing TTACCAAGCTGAAAGGTCGTTGATGCACGCCTTG as well?
OUT: 1.04

IN: Would you mind doing ATCTCTAGGTAACCAAGTTCACTGAATGCCGAAC as well?
OUT: 1.58

IN: Would you mind doing CCTAGCAGGCCAGGGTGACTCAAGCATTTCGCTT as well?
OUT: -0.526

IN: Would you mind doing CCTCTTAGTTGACCATAAGGGCAACCGAAGCTCG as well?
OUT: 0.647

IN: Would you mind doing TCGAGTAGGTAACCAATGGGGCATTCAGCTTTCT as well?
OUT: 0.362
